Origin of measurements: the NIST ThermoML archive (doi:10.1021/je060139a)

ASSAY METHOD TEXT: xn = mol fraction of the nth substance listed
ASSAY CONDITIONS: 288.15 K, Wilhelmy plate method, x1 = 0.45
MEASURE: surface tension liquid-gas (mN/m)
I only need the number, in mN/m, no unit after it.

1) CCC(=O)OCc1ccccc1 [benzyl propanoate] + CCO; 28.85

Consider the compound COC(=O)c1ccccc1 [methyl benzoate] + CCO . State its measured surface tension liquid-gas.
29.69

Identify the reported surface tension liquid-gas for the following entry. CCOC(=O)CC(C)=O [ethyl 3-oxobutanoate] + CCO
27.8

---

ASSAY CONDITIONS: 288.15 K, Wilhelmy plate method
Lab note: compare surface tension liquid-gas with 30 mN/m, writing 1 if less and -1 if equal or more.

1. CC(=O)OCc1ccccc1 [benzyl ethanoate]; -1
2. CCOC(=O)CC(C)=O [ethyl 3-oxobutanoate]; -1
3. CCOC(=O)c1ccccc1O [ethyl 2-hydroxybenzoate]; -1
4. CCC(=O)OCc1ccccc1 [benzyl propanoate]; -1
5. CCO; 1

Does the reported surface tension liquid-gas of COC(=O)c1ccccc1 [methyl benzoate] stay below 30 mN/m?
-1

Dear reviewer, please state whether CCOC(=O)CC(C)C [ethyl 3-methylbutanoate] has surface tension liquid-gas strictly beneath 30 mN/m.
1

---

ASSAY METHOD TEXT: refractive index (Na D-line) (dimensionless); xn = mol fraction of the nth substance listed
ASSAY CONDITIONS: 288.15 K; 100.5 kPa; Liquid; Standard Abbe refractometry; x1 = 0.5
refractive index listing for selected molecules.
Output: the number by itself.

// worked examples, refractive index included
1. CCC(=O)OCc1ccccc1 [benzyl propanoate] + CCO; 1.46414
2. CCOC(=O)CC(C)=O [ethyl 3-oxobutanoate] + CCO; 1.4034
3. CCOC(=O)c1ccccc1O [ethyl 2-hydroxybenzoate] + CCO; 1.48051
4. CC(=O)OCc1ccccc1 [benzyl ethanoate] + CCO; 1.4647
5. CCOC(=O)CC(C)C [ethyl 3-methylbutanoate] + CCO; 1.38894

Please look at the following molecule next.
Output measured refractive index for this item: COC(=O)c1ccccc1 [methyl benzoate] + CCO
1.47142

---

Each record here notes measured refractive index.
ASSAY METHOD TEXT: refractive index (Na D-line) (dimensionless); xn = mol fraction of the nth substance listed
ASSAY CONDITIONS: 288.15 K; 100.5 kPa; Liquid; Standard Abbe refractometry; x1 = 0.75
Reply briefly: the number, and no unit.

1) CCC(=O)OCc1ccccc1 [benzyl propanoate] + CCO; 1.48549
2) CCOC(=O)c1ccccc1O [ethyl 2-hydroxybenzoate] + CCO; 1.50695
3) CCOC(=O)CC(C)=O [ethyl 3-oxobutanoate] + CCO; 1.4137
4) CCOC(=O)CC(C)C [ethyl 3-methylbutanoate] + CCO; 1.39467
5) CC(=O)OCc1ccccc1 [benzyl ethanoate] + CCO; 1.48819

Let us examine a further case.
Specify reported refractive index for the compound shown: COC(=O)c1ccccc1 [methyl benzoate] + CCO
1.49936

---

ASSAY METHOD TEXT: refractive index (Na D-line) (dimensionless); xn = mol fraction of the nth substance listed
ASSAY CONDITIONS: 298.18 K; 100.5 kPa; Liquid; Standard Abbe refractometry; x1 = 0.55
MEASURE: refractive index
Lab note: jot down the number only; don't add units.

Check out these entries, answers already filled in.
1) CCOC(=O)CC(C)C [ethyl 3-methylbutanoate] + CCO; 1.38564
2) CCC(=O)OCc1ccccc1 [benzyl propanoate] + CCO; 1.46464
3) CC(=O)OCc1ccccc1 [benzyl ethanoate] + CCO; 1.46565
4) CCOC(=O)c1ccccc1O [ethyl 2-hydroxybenzoate] + CCO; 1.48212
5) COC(=O)c1ccccc1 [methyl benzoate] + CCO; 1.47332

Next item in the queue.
State, in one line, measured refractive index of CCOC(=O)CC(C)=O [ethyl 3-oxobutanoate] + CCO
1.4014
